# Tested on: 485176-168-R4-J1-PDC spheroids with HUVEC/MSC, viability;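 note: spheroids exposed to compounds for seven days before readout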
# Assay notes: Anticancer human tumor 485176-168-R4-J1-PDC patient-derived pancreatic adenocarcinoma cell line growth inhibition [GQUAD]
# Run parameters: second compound 0.1 µM; first compound 0.316 µM; hits give low values
Please note: viability, T/C exactly at 70% is No. Only values below 70% get Yes.

Below are worked cases with known answers.
| Compound | Tested on | Label value |
| --- | --- | --- |
| O=C(NO)c1cnc(N2CCN(S(=O)(=O)c3ccc4ccccc4c3)CC2)nc1 + Cc1[nH]c2ccc(F)cc2c1-c1nc2c3cccnc3c3ncccc3c2[nH]1 | 485176-168-R4-J1-PDC spheroids with HUVEC/MSC, viability | No |
| CC(=O)O[C@H]1C(=O)[C@@]2(C)[C@H]([C@H](OC(=O)c3ccccc3)[C@]3(O)C[C@H](OC(=O)[C@H](O)[C@@H](NC(=O)c4ccccc4)c4ccccc4)C(C)=C1C3(C)C)[C@]1(OC(C)=O)CO[C@@H]1C[C@@H]2O + CN(C)c1ccc(Nc2c3ccc(NC(=O)CCN4CCCC4)cc3nc3cc(NC(=O)CCN4CCCC4)ccc23)cc1 | 485176-168-R4-J1-PDC spheroids with HUVEC/MSC, viability | Yes |
| CC(C)(O)C1CCC(Nc2ccc3ncc(-c4cccc(C(F)(F)F)c4)n3n2)CC1 (stereo not given) + CN(C)c1ccc(Nc2c3ccc(NC(=O)CCN4CCCC4)cc3nc3cc(NC(=O)CCN4CCCC4)ccc23)cc1 | 485176-168-R4-J1-PDC spheroids with HUVEC/MSC, viability | No |

Turning now to a further record.
Query: Dear colleague, could you confirm whether viability, T/C of Nc1ccn(C2OC(CO)C(O)C2(F)F)c(=O)n1 (stereo not given) + CN(C)c1ccc(Nc2c3ccc(NC(=O)CCN4CCCC4)cc3nc3cc(NC(=O)CCN4CCCC4)ccc23)cc1 falls below 70%? Thanks.
Reply: Yes
